target under test: HLA A*3201 (Homo sapiens, UniProt P04439, A270S/D101S/D185E/E176V/E277Q/F133L/G103R/G107R/G231S/H175R/I121M/I218V/I322F/K168Q/L105A/L300P/L318F/M331R/P208A/P217A/Q94H/R106L/R138Q/S129P/T104I/T323A/T345S/V100E/V321M/V358M)
method: biochemical
pIC50: −log10 of the molar value. Where a SMILES comes first, the peptide text is derived from it.
Overview of recorded pIC50 for various compounds

| compound | pIC50 |
| --- | --- |
| CC[C@H](C)[C@H](NC(=O)[C@H](CCCCN)NC(=O)[C@H](CC(N)=O)NC(=O)[C@H](CO)NC(=O)[C@H](Cc1ccc(O)cc1)NC(=O)[C@H](CCCCN)NC(=O)[C@H](CC(C)C)NC(=O)[C@@H](NC(=O)[C@@H](N)CCCCN)[C@@H](C)O)C(=O)O [3102.0326] (H-KTLKYSNKI-OH) | 8.72 |
| CC[C@H](C)[C@H](NC(=O)[C@H](Cc1c[nH]cn1)NC(=O)[C@@H](NC(=O)[C@H](CO)NC(=O)[C@@H](NC(=O)[C@H](C)NC(=O)[C@H](CO)NC(=O)[C@H](CC(C)C)NC(=O)[C@@H](N)CO)C(C)C)C(C)C)C(=O)O [3102.0349] (H-SLSAVSVHI-OH) | 7.47 |
| CC[C@H](C)[C@H](NC(=O)[C@H](CO)NC(=O)[C@H](CCC(N)=O)NC(=O)[C@H](CCC(N)=O)NC(=O)[C@H](CC(C)C)NC(=O)[C@H](Cc1ccccc1)NC(=O)[C@H](CC(C)C)NC(=O)[C@@H](NC(=O)[C@@H](N)CCCCN)C(C)C)C(=O)O [3102.0312] (H-KVLFLQQSI-OH) | 9.15 |
| CC[C@H](C)[C@H](NC(=O)[C@H](CC(C)C)NC(=O)[C@@H](N)CCCNC(=N)N)C(=O)N[C@@H](CC(N)=O)C(=O)N[C@@H](CC(N)=O)C(=O)N[C@@H](CCCNC(=N)N)C(=O)N[C@H](C(=O)N[C@@H](CC(C)C)C(=O)N[C@@H](Cc1ccccc1)C(=O)O)C(C)C [3102.0428] (H-RLINNRVLF-OH) | 8.24 |

---

target under test: HLA A*0201 (Homo sapiens, UniProt P04439, D140Y/D185E/D98H/E176V/E277Q/G131W/G231S/I119V/I121R/I166T/I218V/L300P/L318F/N151K/N90K/P208A/P217A/Q86G/Q94H/R138H/R169H/T345S)
cond: positional scanning combinatorial 9-mer library; normalized to 1.0 for the best residue at each position
measurement type: Normalized average relative binding affinity (ARB), HLA A*0201

| polymer sequence | readout number |
| --- | --- |
| XXGXXXXXX [3064.0046] | 0.098 |
| XXSXXXXXX [3064.0056] | 0.17 |
| IXXXXXXXX [3064.0008] | 0.12 |
| LXXXXXXXX [3064.0010] | 0.054 |
| XIXXXXXXX [3064.0028] | 0.057 |
| XXAXXXXXX [3064.0041] | 0.43 |

---

Below, each entry is listed with its recorded Normalized average relative binding affinity (ARB), H-2 Dd.
target under test: H-2 D^d (Mus musculus)
Format: binding
measurement type: Normalized average relative binding affinity (ARB), H-2 Dd

| polymer sequence | readout number |
| --- | --- |
| XXQXXXXXX [3064.0054] | 0.012 |
| XLXXXXXXX [3064.0030] | 0.035 |
| HXXXXXXXX [3064.0007] | 0.21 |
| XXCXXXXXX [3064.0042] | 0.0028 |
| XRXXXXXXX [3064.0035] | 0.028 |
| DXXXXXXXX [3064.0003] | 0.059 |
| XXFXXXXXX [3064.0045] | 0.0072 |
| XXXDXXXXX [3064.0063] | 0.30 |
| XQXXXXXXX [3064.0034] | 0.015 |
| KXXXXXXXX [3064.0009] | 0.18 |
| XXSXXXXXX [3064.0056] | 0.0061 |
| XMXXXXXXX [3064.0031] | 0.018 |
| LXXXXXXXX [3064.0010] | 0.29 |
| XXKXXXXXX [3064.0049] | 0.0033 |
| XXDXXXXXX [3064.0043] | 0.012 |
| XCXXXXXXX [3064.0022] | 0.013 |
| XXTXXXXXX [3064.0057] | 0.0048 |
| WXXXXXXXX [3064.0019] | 1.0 |
| XAXXXXXXX [3064.0021] | 0.025 |
| XXGXXXXXX [3064.0046] | 0.0040 |

---

target under test: H-2 D^d (Mus musculus, UniProt P01900)
Sequence (P01900 whole entry, looked up): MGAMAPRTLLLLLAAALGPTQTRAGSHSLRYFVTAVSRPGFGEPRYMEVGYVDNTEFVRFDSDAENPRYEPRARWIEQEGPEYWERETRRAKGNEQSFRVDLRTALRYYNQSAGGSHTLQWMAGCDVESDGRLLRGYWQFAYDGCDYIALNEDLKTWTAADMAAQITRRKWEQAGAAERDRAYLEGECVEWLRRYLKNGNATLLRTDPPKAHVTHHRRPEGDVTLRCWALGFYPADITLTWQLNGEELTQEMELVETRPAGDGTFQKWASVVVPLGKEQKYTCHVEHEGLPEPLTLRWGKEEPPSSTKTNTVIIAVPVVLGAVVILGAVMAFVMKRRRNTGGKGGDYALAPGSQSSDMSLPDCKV
Format: binding
Category key, based on recorded Normalized average relative binding affinity(ARB): low bracket: < 0.2; middle bracket: ≥ 0.2 and < 0.6; high bracket: ≥ 0.6

| polymer sequence | cat |
| --- | --- |
| XXXXXIXXX [3064.0108] | middle bracket |
| XXXXXXNXX [3064.0132] | low bracket |
| XXXXYXXXX [3064.0100] | middle bracket |
| XXXXXXAXX [3064.0121] | low bracket |
| XXXXXDXXX [3064.0103] | middle bracket |
| XXXXDXXXX [3064.0083] | low bracket |
| XXXTXXXXX [3064.0077] | high bracket |
| XXXXLXXXX [3064.0090] | middle bracket |
| XXXXXXXTX [3064.0157] | middle bracket |
| XXXFXXXXX [3064.0065] | high bracket |
| XXXXXXXPX [3064.0153] | high bracket |
| XXXXXCXXX [3064.0102] | middle bracket |
| XXXXXXCXX [3064.0122] | low bracket |
| XXXXNXXXX [3064.0092] | low bracket |
| XXXXXAXXX [3064.0101] | middle bracket |
| XXXXXXXMX [3064.0151] | middle bracket |
| XXXXXXXGX [3064.0146] | high bracket |
| XXXXXVXXX [3064.0118] | high bracket |
| XXXXXQXXX [3064.0114] | middle bracket |
| XXXXXXXKX [3064.0149] | middle bracket |
| XXXXXXXSX [3064.0156] | high bracket |
| XXXXXSXXX [3064.0116] | high bracket |
| XXXXXXXRX [3064.0155] | middle bracket |
| XXXXPXXXX [3064.0093] | low bracket |

---

target under test: HLA B*5301 (Homo sapiens, UniProt P01889, A329T/A93T/A95T/C349S/D201E/D98Y/E176V/E187L/E204Q/E69T/G107R/I218V/K202T/L105A/L119I/N104I/Q94N/R106L/R155S/R180L/S101N/S121R/S35A/S48A/T118I/V127L/V306I/V36M/Y140S/Y91F)
Type: binding
Each record's class is read off its Normalized average relative binding affinity(ARB) using these ranges: 1: < 0.1; 2: ≥ 0.1 and < 0.2; 3: ≥ 0.2

| polymer sequence | cat |
| --- | --- |
| XXXQXXXXX [3064.0074] | 3 |
| XXXXWXXXX [3064.0099] | 1 |
| XXXXXXDXX [3064.0123] | 1 |
| XXXXXGXXX [3064.0106] | 3 |
| XXXYXXXXX [3064.0080] | 3 |
| XXXXXXKXX [3064.0129] | 1 |
| XXXXDXXXX [3064.0083] | 2 |
| XXXXXXHXX [3064.0127] | 1 |
| XXXXXYXXX [3064.0120] | 3 |
| XXXXXXSXX [3064.0136] | 1 |
| XXXXXXAXX [3064.0121] | 3 |
| XXXXXXXAX [3064.0141] | 3 |
| XXXXXXMXX [3064.0131] | 2 |
| XXXXXXYXX [3064.0140] | 2 |
| XXXXXSXXX [3064.0116] | 2 |
| XXXVXXXXX [3064.0078] | 3 |
| XXXXXWXXX [3064.0119] | 3 |
| XXXXXMXXX [3064.0111] | 3 |
| XXXXXXLXX [3064.0130] | 3 |
| XXXFXXXXX [3064.0065] | 3 |
| XXXKXXXXX [3064.0069] | 2 |
| XXXXXCXXX [3064.0102] | 2 |
| XXXXLXXXX [3064.0090] | 2 |
| XXXXXXXQX [3064.0154] | 2 |
| XXXXXHXXX [3064.0107] | 3 |
| XXXIXXXXX [3064.0068] | 2 |
| XXXXGXXXX [3064.0086] | 3 |
| XXXXHXXXX [3064.0087] | 1 |
| XXXXXXXYX [3064.0160] | 3 |
| XXXXXXXSX [3064.0156] | 2 |
| XXXXXXXDX [3064.0143] | 1 |
| XXXSXXXXX [3064.0076] | 3 |
| XXXRXXXXX [3064.0075] | 2 |
| XXXXNXXXX [3064.0092] | 2 |
| XXXXXXXCX [3064.0142] | 1 |
| XXXXXXXGX [3064.0146] | 1 |
| XXXXXXXPX [3064.0153] | 2 |
| XXXXXXXVX [3064.0158] | 3 |
